assay: Metabolic stability in human liver microsomes; format: in vitro ADME; conditions: human liver microsomes, 1 µM
test readout: t1/2 (min)

1) CC([c-]1cccc1)n1cc(Cn2cnc3ncnc(Cl)c32)nn1.[Fe+2].c1cc[cH-]c1 (stereo not drawn) [Compound 15b]; 19.0
2) Clc1ncnc2ncn(Cc3cn(C[c-]4cccc4)nn3)c12.[Fe+2].c1cc[cH-]c1 [Compound 15a]; 51.9

a: Clc1ncnc2c1ccn2Cc1cn(-[c-]2cccc2)nn1.[Fe+2].c1cc[cH-]c1 [Compound 11c]
b: Clc1ncnc2c1ncn2Cc1cn(C[c-]2cccc2)nn1.[Fe+2].c1cc[cH-]c1 [Compound 13a]
c: CC([c-]1cccc1)n1cc(Cn2ccc3c(Cl)ncnc32)nn1.[Fe+2].c1cc[cH-]c1 (stereo not drawn) [Compound 11b]
d: Clc1ncnc2c1ccn2Cc1cn(C[c-]2cccc2)nn1.[Fe+2].c1cc[cH-]c1 [Compound 11a]
Arrange these 4 compounds in increasing order of t1/2. Order the labels as requested and list them.
c, a, d, b
